tested on: Vero E6 infected with SARS-CoV-2; assay: inhibition of SARS-CoV-2 cytopathic effect; higher = more antiviral protection, active = above 15; details: 1 nM; 48 h
REPORTED PROPERTY: inhibition of SARS-CoV-2 cytopathic effect (%)
Numbers only, in %.

{"MOLECULE": "CCN(CC)CCNC(=O)c1ccccc1I", "ASSAY VALUE": 1.9}

I have 7 molecules here; please give me inhibition of SARS-CoV-2 cytopathic effect for each one.
1. COc1c(C)c(C(=O)c2ccc(N)c(C(=O)O)c2)n2ccccc12
2. O=C(O)c1ccc(O)c2ncccc12
3. CNc1nc(C)nc(N[C@H]2CCC[C@@H](C(=O)NCc3ccc(C#N)cc3C(F)(F)F)C2)n1
4. Cc1ccc([N+](=O)[O-])cc1S(=O)(=O)N(C)C
5. C/C(=C\C(=O)Nc1ccccc1C(=O)O)c1ccc2ccccc2c1
6. COc1ccc2[nH]c3c(-c4cccc5ccccc45)nccc3c2c1
7. Cc1ccsc1C(=CCCN1CCC[C@@H](C(=O)O)C1)c1sccc1C

Result:
-2.54
0.11
1.51
-1.97
3.55
-2.63
1.59

Source listed as the supplement of paper PMC13380429.
